B1: TOR1AIP2 (parent)
chain: DGAGRTWQDSDTVKLLVDLELSYG

- Variants of: B1
- METHOD_SUMMARY: protein stability index of a GFP-peptide fusion (GPS, HEK-293T) (PSI 1-6); higher = more stable;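 note: lentivirally expressed fusions sorted by FACS into six bins by GFP to DsRed ratio, PSI derived from sequencing read proportions per bin multiplied by bin number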
- RUN_CONDITIONS: c terminus: a fixed tail appended
Class definitions on protein stability index: low interval (below 2), middle interval (2 to below 3), high interval (3 or more)

1. E20L
middle interval
2. V13T
middle interval
3. G24S
middle interval
4. G24Q
middle interval
5. L16N
high interval
6. K14Q
low interval
7. T12N
middle interval
8. D1Q
low interval

Consider the record given below.
Given T6K , name the class its protein stability index places it in. high interval
